The reported measurements were obtained from the RNAGym collection of RNA variant scans (doi:10.7554/elife.90254).

B1: OR4K15 (parent)
chain: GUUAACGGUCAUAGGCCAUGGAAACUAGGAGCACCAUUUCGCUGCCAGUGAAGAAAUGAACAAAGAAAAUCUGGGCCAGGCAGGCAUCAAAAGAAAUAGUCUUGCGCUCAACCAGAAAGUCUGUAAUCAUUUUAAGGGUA

Variants of: B1
assay.summary: self-cleavage, relative activity (ratio to wild type); higher = more cleavage; in vitro, sequencing; the parent is a self-cleaving ribozyme
metric: self-cleavage
Give bare numbers.

Example entries and their recorded answers appear below.
A11G A125G :: 0.38
A69G G99U :: 0.23
U19C U26C :: 1.24
A23U G41C :: 2.09
U103A A118G :: 0.41
A27U U102C :: 2.12
U100C U130A :: 2.16
A86G C113U :: 0.03

Batch request: self-cleavage for each of the following variants.
1. A30G U87C
2. U87G U108C

1.39
0.02

For every record below, what is its self-cleavage?
1. G44A A47G
2. G41A U70C
3. U43C U57G
4. A78U A114C
5. A60G U102C
6. A89U A116U
7. A33U U87C
8. A5U A23U

1: 1.27; 2: 1.12; 3: 0.87; 4: 0.05; 5: 1.4; 6: 0.46; 7: 1.74; 8: 1.56

Batch: self-cleavage for all items listed.
1. G50C
2. A56U A126G

1. 1.54
2. 1.34

Hi, could you look up self-cleavage for each item in my list?
1. A30G A68G
2. A82G A92C
3. A54G A55G
4. A52U C101U

[1.49, 0.78, 0.99, 0.19]

State the recorded self-cleavage for every item in the following list.
1. G14A U130C
2. C35U A69G
3. A55G A126G
4. U9C C34U
5. U39A U108C
6. U70C U124C
7. A63G U108A

[0.45, 1.1, 0.33, 1.01, 0.02, 0.27, 0.01]

Give one value of self-cleavage per listed variant.
1. A116U U131C
2. G44C A82U

1: 0.11; 2: 0.27

Would you be so kind as to report self-cleavage for each listed record?
1. A24G A56U
2. A92U A125G

1. 0.97
2. 0.58

For every listed record, write down its self-cleavage.
1. A114G A126U
2. A67G A118C

1: 0.46; 2: 0.76
